# targetSystem: Farnesoid X receptor (FXR) (Homo sapiens, UniProt Q96RI1)
# Construct: 6His-FXR-LBD (residues 243-472aa)
# Sequence (Q96RI1 257-486): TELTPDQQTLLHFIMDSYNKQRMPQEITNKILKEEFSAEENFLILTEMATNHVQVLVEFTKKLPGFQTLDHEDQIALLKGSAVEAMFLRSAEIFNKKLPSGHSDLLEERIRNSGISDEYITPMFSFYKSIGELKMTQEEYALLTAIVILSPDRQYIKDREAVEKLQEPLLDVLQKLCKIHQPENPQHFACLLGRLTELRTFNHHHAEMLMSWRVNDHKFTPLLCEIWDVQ
# methodNotes: AlphaScreen coactivator recruitment with purified FXR-LBD; also luciferase reporter (EC50 […]) and M265I/Y369F mutagenesis
measurementName: EC50

Exercise: Record request: EC50 value, item `CC1=CC(=O)C[C@@H]2[C@@](C)(CC/C(C)=C/CO)[C@H](C)CC[C@@]12C`
Key: ~3.7 µM

From: paper PMC9786051
